Measured cAMP Emax (1.0% HSA), listed per entry for reference.
Target: T1, human GIP receptor (human, UniProt P48546 22-466)
T1 sequence (looked up): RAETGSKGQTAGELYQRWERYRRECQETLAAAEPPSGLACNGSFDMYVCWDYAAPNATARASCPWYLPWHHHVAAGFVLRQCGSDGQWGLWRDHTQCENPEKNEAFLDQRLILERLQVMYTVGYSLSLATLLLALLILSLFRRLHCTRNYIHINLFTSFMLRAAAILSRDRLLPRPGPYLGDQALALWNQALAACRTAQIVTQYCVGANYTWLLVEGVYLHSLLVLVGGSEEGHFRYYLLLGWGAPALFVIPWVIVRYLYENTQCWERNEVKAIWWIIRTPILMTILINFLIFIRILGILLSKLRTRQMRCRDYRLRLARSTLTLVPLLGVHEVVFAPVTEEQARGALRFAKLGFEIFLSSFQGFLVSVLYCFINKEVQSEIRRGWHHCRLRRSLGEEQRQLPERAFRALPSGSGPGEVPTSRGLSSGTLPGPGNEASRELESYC
Experiment: cell-based or functional assay
endpoint.name: cAMP Emax (1.0% HSA) (%)

| binder | measure.unit | result |
| --- | --- | --- |
| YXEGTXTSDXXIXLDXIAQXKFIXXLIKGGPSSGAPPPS (Y-Aib-EGT-αMeF(2F)-TSD-4Pal-Aib-I-αMeL-LD-Orn-IAQ-Aib-K((2-[2-(2-Amino-ethoxy)-ethoxy]-acetyl)-(γ-Glu)-CO-(CH2)12-CO2H)FI-(D-Glu)-αMeY-LIK((2-[2-(2-Amino-ethoxy)-ethoxy]-acetyl)-(γ-Glu)-CO-(CH2)12-CO2H)GGPSSGAPPPS-NH2) [Example 340] | % | 87.9 |
| YXEGTXTSDXXIXLDXIAQXXFIKXLIKGGPSSGAPPPS (Y-Aib-EGT-αMeF(2F)-TSD-4Pal-Aib-I-αMeL-LD-Orn-IAQ-Aib-Orn-FIK((2-[2-(2-Amino-ethoxy)-ethoxy]-acetyl)2-(γ-Glu)-CO-(CH2)12-CO2H)-αMeY-LIK((2-[2-(2-Amino-ethoxy)-ethoxy]-acetyl)2-(γ-Glu)-CO-(CH2)12-CO2H)GGPSSGAPPPS-NH2) [Example 315] | % | 89.2 |
| YXEGTXTSDYXIXLDXKAQXXFIXXLIKGGPSSGAPPPS (Y-Aib-EGT-αMeF(2F)-TSDY-Aib-I-αMeL-LD-Orn-K((2-[2-(2-Amino-ethoxy)-ethoxy]-acetyl)2-(γ-Glu)-(10-(4-carboxyphenoxy)decanoyl))AQ-Aib-Om-FI-(D-Glu)-αMeY-LIK((2-[2-(2-Amino-ethoxy)-ethoxy]-acetyl)2-(γ-Glu)-(10-(4-carboxyphenoxy)decanoyl))GGPSSGAPPPS-NH2) [Example 352] | % | 71.3 |
| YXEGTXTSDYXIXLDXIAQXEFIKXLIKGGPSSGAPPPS (Y-Aib-EGT-αMeF(2F)-TSDY-αMeS-I-αMeL-LD-Orn-IAQ-Aib-EFIK((2-[2-(2-Amino-ethoxy)-ethoxy]-acetyl)2-(γ-Glu)-CO-(CH2)12-CO2H)-αMeY-LIK((2-[2-(2-Amino-ethoxy)-ethoxy]-acetyl)2-(γ-Glu)-CO-(CH2)12-CO2H)GGPSSGAPPPS-NH2) [Example 303] | % | 89.8 |
| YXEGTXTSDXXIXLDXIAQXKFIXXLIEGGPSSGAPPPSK (Y-Aib-EGT-αMeF(2F)-TSD-4Pal-Aib-I-αMeL-LD-Orn-IAQ-Aib-K(2-[2-(2-Amino-ethoxy)-ethoxy]-acetyl)2-(γ-Glu)-(11-(4-carboxyphenoxy)undecanoyl)FI-(D-Glu)-αMeY-LIEGGPSSGAPPPSK((2-[2-(2-Amino-ethoxy)-ethoxy]-acetyl)2-(γ-Glu)-(11-(4-carboxyphenoxy)undecanoyl)-NH2)) [Example 242] | % | 83.9 |
| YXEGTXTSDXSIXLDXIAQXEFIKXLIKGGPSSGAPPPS (Y-Aib-EGT-αMeF(2F)-TSD-OMeY-SI-αMeL-LD-Orn-IAQ-Aib-EFIK((2-[2-(2-Amino-ethoxy)-ethoxy]-acetyl)2-(γ-Glu)-CO-(CH2)12-CO2H)-αMeY-LIK((2-[2-(2-Amino-ethoxy)-ethoxy]-acetyl)2-(γ-Glu)-CO-(CH2)12-CO2H)GGPSSGAPPPS-NH2) [Example 262] | % | 79.7 |

Hey, just so you know, these numbers are from patent US20230265151A1.
